tested on: HT-29; assay: SRB colorimetric assay of cell growth and viability, HT-29; format: cell-based, human; details: 48 hours exposure
Reported endpoint: TGI HT-29 (Molar)
Your answer is read as Molar, so omit the unit and give the number.

Lookup: Give the measured TGI HT-29 of C/C=C1\NC(=O)[C@H](Cc2ccccc2)NC(=O)[C@@H](C(C)C)NC(=O)[C@@H](C(C)CC)NC(=O)[C@H](NC(=O)[C@H](NC(=O)[C@H](CCCN)NC(=O)[C@H]2CCCN2C(=O)[C@H](NC(=O)[C@@H](NC(=O)[C@@H](NC(=O)[C@H](NC(=O)CCC(C)CC)C(C)C)C(C)O)C(C)C)C(C)C)C(C)CC)C(C)OC(=O)[C@H](C(C)C)NC1=O (stereo partly drawn) .
Found: 2.18E−07

Lookup: Item C/C=C1\NC(=O)[C@H](Cc2ccccc2)NC(=O)[C@@H](C(C)C)NC(=O)[C@@H]([C@@H](C)CC)NC(=O)[C@H](NC(=O)[C@H](NC(=O)[C@H](CCCN)NC(=O)[C@H]2CCCN2C(=O)[C@H](NC(=O)[C@@H](NC(=O)[C@@H](NC(=O)[C@H](NC(=O)c2ccc3c(c2)OCO3)C(C)C)[C@@H](C)O)C(C)C)C(C)C)[C@@H](C)CC)[C@@H](C)OC(=O)[C@H](C(C)C)NC1=O [Compound 23, [Pipe^14]-KF] has what recorded TGI HT-29?
Found: 3.30E−07

Lookup: Value lookup for TGI HT-29; key = C/C=C1\NC(=O)[C@H](Cc2ccccc2)NC(=O)[C@@H](C(C)C)NC(=O)[C@@H]([C@@H](C)CC)NC(=O)[C@H](NC(=O)[C@H](NC(=O)[C@H](CCCN)NC(=O)[C@H]2CCCN2C(=O)[C@H](NC(=O)[C@@H](NC(=O)[C@@H](NC(=O)[C@@H](CCC(N)=O)NC(=O)CCCC(C)C)[C@@H](C)O)C(C)C)C(C)C)[C@@H](C)CC)[C@@H](C)OC(=O)[C@H](C(C)C)NC1=O [Compound 40, [D-Gln^13]-KF]
Found: 1.87E−06

###

test system: HT-29; experiment: SRB colorimetric assay of cell growth and viability, HT-29; format: cell-based, human; details: HT-29; 48 hours exposure; read-out: LC50 HT-29
Where a SMILES comes first, the peptide text is derived from it. Bridges are numbered along the chain shown (N, C = ends). [ ]: non-standard residue; d: D form. The star is where a group is joined. d(aIle) = CC[C@H](C)[C@@H](N)C(=O)O; d(aThr) = C[C@@H](O)[C@@H](N)C(=O)O; Hexanoyl(5-Me) = CC(C)CCCC(=O)*; Orn = NCCC[C@H](N)C(=O)O; Dhb = C/C=C(\N)C(=O)O
Reported endpoint: CC50 (µM)
Write the number in µM without appending the unit.

Lookup: Which CC50 is listed for C/C=C1\NC(=O)[C@H](Cc2ccccc2)NC(=O)[C@@H](C(C)C)NC(=O)[C@@H]([C@@H](C)CC)NC(=O)[C@H](NC(=O)[C@H](NC(=O)[C@H](CCCN)NC(=O)[C@H]2CCCN2C(=O)[C@H](NC(=O)[C@@H](NC(=O)[C@H](CCCN)NC(=O)[C@H](NC(=O)CCCC(C)C)C(C)C)C(C)C)C(C)C)[C@@H](C)CC)[C@@H](C)OC(=O)[C@H](C(C)C)NC1=O [Compound 116, [Orn^12]-KF] ({Hexanoyl(5-Me)}-[dV][Orn]V[dV][dP][Orn][d(aIle)][d(aThr)][d(aIle)][dV]F[Dhb]V; ester 8-C) ?
Found: 6.71

###

Test system: DU-145
Assay: SRB colorimetric assay of cell growth and viability, DU-145
Type: cell-based, human
Conditions: 48 hours exposure
Description: The finality of this assay is to interrupt the growth of a “in vitro” tumor cell culture by means a continued exhibition of the cells to the sample to be testing. […] Cells are seeded in 96 well microtiter plates, at 5×10^3 cells per well in aliquots of 195 μL medium, and they are allowed to attach to the plate surface by growing in drug free medium for 18 hours. […] Optical densities are read on a automated spectrophotometric plate reader at a single wavelength of 490 nm. […]
Where a SMILES comes first, the peptide text is derived from it. Bridges are numbered along the chain shown (N, C = ends). [ ]: non-standard residue; d: D form. The star is where a group is joined. d(aThr) = C[C@@H](O)[C@@H](N)C(=O)O; Hexanoyl(5-Me) = CC(C)CCCC(=O)*; dCha = N[C@H](CC1CCCCC1)C(=O)O; Orn = NCCC[C@H](N)C(=O)O; Dhb = C/C=C(\N)C(=O)O
Reported endpoint: LC50 (concentration causing 50% net cell kill) (µM)
Respond with the bare value in µM.

Lookup: What reported LC50 (concentration causing 50% net cell kill) corresponds to C/C=C1\NC(=O)[C@H](Cc2ccccc2)NC(=O)[C@@H](CC2CCCCC2)NC(=O)[C@@H](CC2CCCCC2)NC(=O)[C@H](NC(=O)[C@@H](CC2CCCCC2)NC(=O)[C@H](CCCN)NC(=O)[C@H]2CCCN2C(=O)[C@H](NC(=O)[C@@H](NC(=O)[C@@H](NC(=O)[C@H](NC(=O)CCCC(C)C)C(C)C)[C@@H](C)O)C(C)C)C(C)C)[C@@H](C)OC(=O)[C@H](C(C)C)NC1=O [Compound 11, [D-Cha^4, D-Cha^5, D-Cha^7]-KF] ({Hexanoyl(5-Me)}-[dV]TV[dV][dP][Orn][dCha][d(aThr)][dCha][dCha]F[Dhb]V; ester 8-C) on DU-145?
Found: 2.64

###

Test system: DU-145
Experiment: SRB colorimetric assay of cell growth and viability, DU-145
Format: cell-based, human
Conditions: 48 hours exposure
Description: The finality of this assay is to interrupt the growth of a “in vitro” tumor cell culture by means a continued exhibition of the cells to the sample to be testing. […] Cells are seeded in 96 well microtiter plates, at 5×10^3 cells per well in aliquots of 195 μL medium, and they are allowed to attach to the plate surface by growing in drug free medium for 18 hours. […] Optical densities are read on a automated spectrophotometric plate reader at a single wavelength of 490 nm. […]
Where a SMILES comes first, the peptide text is derived from it. Bridges are numbered along the chain shown (N, C = ends). [ ]: non-standard residue; d: D form. The star is where a group is joined. d(aIle) = CC[C@H](C)[C@@H](N)C(=O)O; d(aThr) = C[C@@H](O)[C@@H](N)C(=O)O; hCha = N[C@@H](CCC1CCCCC1)C(=O)O; Hexanoyl(5-Me) = CC(C)CCCC(=O)*; Orn = NCCC[C@H](N)C(=O)O; Dhb = C/C=C(\N)C(=O)O
Reported endpoint: LC50 (concentration causing 50% net cell kill) (µM)
Please give a number only; it is taken to be in µM.

Lookup: Quick one: LC50 (concentration causing 50% net cell kill) for C/C=C1\NC(=O)[C@H](Cc2ccccc2)NC(=O)[C@@H](C(C)C)NC(=O)[C@@H]([C@@H](C)CC)NC(=O)[C@H](NC(=O)[C@H](NC(=O)[C@H](CCCN)NC(=O)[C@H]2CCCN2C(=O)[C@H](NC(=O)[C@H](CCC2CCCCC2)NC(=O)[C@@H](NC(=O)[C@H](NC(=O)CCCC(C)C)C(C)C)[C@@H](C)O)C(C)C)[C@@H](C)CC)[C@@H](C)OC(=O)[C@H](C(C)C)NC1=O [Compound 9, [hCh^11]-KF] ({Hexanoyl(5-Me)}-[dV]T[hCha][dV][dP][Orn][d(aIle)][d(aThr)][d(aIle)][dV]F[Dhb]V; ester 8-C) ?
Found: 3.28

Lookup: Sample C/C=C1\NC(=O)[C@H](Cc2ccccc2)NC(=O)[C@@H](C(C)C)NC(=O)[C@@H]([C@@H](C)CC)NC(=O)[C@H](NC(=O)[C@H](NC(=O)[C@H](CCC(=O)O)NC(=O)[C@H]2CCCN2C(=O)[C@H](NC(=O)[C@@H](NC(=O)[C@@H](NC(=O)[C@H](NC(=O)CCCC(C)C)C(C)C)[C@@H](C)O)C(C)C)C(C)C)[C@@H](C)CC)[C@@H](C)OC(=O)[C@H](C(C)C)NC1=O [Compound 4, [Glu^8]-KF] ({Hexanoyl(5-Me)}-[dV]TV[dV][dP]E[d(aIle)][d(aThr)][d(aIle)][dV]F[Dhb]V; ester 8-C) — what was its LC50 (concentration causing 50% net cell kill)?
Found: 3.88

Lookup: Which value of LC50 (concentration causing 50% net cell kill) has been reported for C/C=C1\NC(=O)[C@H](Cc2ccccc2)NC(=O)[C@@H](C(C)C)NC(=O)[C@@H]([C@@H](C)CC)NC(=O)[C@H](NC(=O)[C@H](NC(=O)[C@H](CCCN)NC(=O)[C@H]2CCCN2C(=O)[C@H](NC(=O)[C@@H](NC(=O)[C@@H]2CCCN2C(=O)CCCC(C)C)C(C)C)C(C)C)[C@@H](C)CC)[C@@H](C)OC(=O)[C@H](C(C)C)NC1=O [Compound 55, [Pro^12, noD-Val^13]-KF] ({Hexanoyl(5-Me)}-PV[dV][dP][Orn][d(aIle)][d(aThr)][d(aIle)][dV]F[Dhb]V; ester 7-C) in the records?
Found: 7.27

Lookup: What LC50 (concentration causing 50% net cell kill) value was documented for this compound, C/C=C1\NC(=O)[C@H](Cc2ccccc2)NC(=O)[C@@H](C(C)C)NC(=O)[C@@H]([C@@H](C)CC)NC(=O)[C@H](NC(=O)[C@H](NC(=O)[C@H](CCCCN)NC(=O)[C@H]2CCCN2C(=O)[C@H](NC(=O)[C@@H](NC(=O)[C@@H](NC(=O)[C@H](NC(=O)CC[C@@H](C)CC)C(C)C)[C@@H](C)O)C(C)C)C(C)C)[C@@H](C)CC)[C@@H](C)OC(=O)[C@H](C(C)C)NC1=O [Compound 30, [Lys^8, (4S)-MeHex^14]-KF] ?
Found: 4.2

Lookup: Give its LC50 (concentration causing 50% net cell kill) value. Item: C/C=C1\NC(=O)[C@H](Cc2ccccc2)NC(=O)[C@@H](C(C)C)NC(=O)[C@@H]([C@@H](C)CC)NC(=O)[C@H](NC(=O)[C@H](NC(=O)[C@H](CCCN)NC(=O)[C@H]2CCCN2C(=O)[C@H](NC(=O)[C@@H](NC(=O)[C@@H](NC(=O)[C@H](NC(=O)CCCCCCC)C(C)C)[C@@H](C)O)C(C)C)C(C)C)[C@@H](C)CC)[C@@H](C)OC(=O)[C@H](C(C)C)NC1=O [Compound 18, [Oct^14]-KF]
Found: 1.47

Lookup: // query LC50 (concentration causing 50% net cell kill) value for entry C/C=C1\NC(=O)[C@H](Cc2ccccc2)NC(=O)[C@@H](C(C)C)NC(=O)[C@@H]([C@@H](C)CC)NC(=O)[C@H](NC(=O)[C@H](NC(=O)[C@H](CCCN)NC(=O)[C@H]2CCCN2C(=O)[C@H](NC(=O)[C@@H](NC(=O)[C@@H](NC(=O)[C@H](NC(=O)C(F)(F)C(F)(F)C(F)(F)C(F)(F)C(F)(F)C(F)(F)F)C(C)C)[C@@H](C)O)C(C)C)C(C)C)[C@@H](C)CC)[C@@H](C)OC(=O)[C@H](C(C)C)NC1=O [Compound 26, [Pfh^14]-KF]
Found: 3.35
